Provenance of the data: PubChem BioAssay (NCATS)

- System: PA-1
- experimental-protocol: Primary qHTS to identify gynecologic anti-cancer compounds using libraries of approved drugs and bioactive compounds (AID 1345084); further: nearly all actives have a fitted effect of over 55% in size
- stated-conditions: Gynecologic cancer cell panel viability, ATPlite luminescence, 48 h; series mostly up to 57.5 µM
Inconclusive results are not listed. The source made the active and inactive calls. The call rests on the fitted dose curve; in most records, active means well fitted cell-killing curve with a large enough effect; inconclusive means small, poorly fitted or top-dose-only effect, or effect the other way; inactive means flat fitted curve, though single readings scatter.
Would you mind answering with one of these outcomes? 1 = active, 0 = inactive

Field: outcome | Entry: COc1ccc(-c2cnc(-c3cccc4c3-c3ccccc3C4=O)o2)cc1 1

Further, for COC(=O)C[C@H]1C(C)(C)[C@H](OC(C)=O)C2CC3=C4CC(=O)O[C@@H](c5ccoc5)[C@]4(C)CCC3[C@@]1(C)C2=O (some centres undefined) ? 0

Further, for OC[C@H]1O[C@@H](Oc2cc(O)c3c(c2)O[C@@H](c2ccc(O)cc2)[C@H](O)C3)[C@H](O)[C@@H](O)[C@@H]1O ? 0

Further, for CC1OC(OC2CCC3(C)C(CCC4(C)C3CC=C3C5CC(C)(C)CCC5(C(=O)OC5OC(CO)C(O)C(O)C5O)CCC34C(=O)O)C2(C)C)C(O)C(O)C1O (centres undefined) ? 0

Further, for O=C1NC(Cc2ccccc2)C(=O)N2CCCC12 (centres undefined) ? 0

Further, for CC12CCC(OC3OC(CO)C(O)C(OC4OC(CO)C(O)C(O)C4O)C3O)CC1CCC1C2CCC2(C)/C(=C3/COC(=O)C3)CCC12O (centres undefined) ? 0

Further, for C=C(CO)C12OC1C1(C)C(=CC2=O)C(O)C(O)CC1C (centres undefined) ? 0

Further, for O=C(O)c1cc2cccc([N+](=O)[O-])c2[nH]1 ? 0

Further, for CC(C)C(C(=O)N(C)C(C)C(N)=O)N(C)C(=O)C1CCCN1C(=O)/C=C/C=C/C(O)C(C)O (centres undefined) ? 0

====

- Test system: CAOV3
- experimental-protocol: Primary qHTS to identify gynecologic anti-cancer compounds using libraries of approved drugs and bioactive compounds (AID 1345084); further: nearly all actives have a fitted effect of over 55% in size
- stated-conditions: Gynecologic cancer cell panel viability, ATPlite luminescence, 48 h; series mostly up to 57.5 µM
Records with an inconclusive call do not appear. Calls of active or inactive are those of the source. The call rests on the fitted dose curve; in most records, active means well fitted cell-killing curve with a large enough effect; inconclusive means small, poorly fitted or top-dose-only effect, or effect the other way; inactive means flat fitted curve, though single readings scatter.
Would you mind answering with one of these outcomes? 1 (yes) for active, 0 (no) for inactive

Check out these entries, answers already filled in.
Field: outcome | Entry: COC(=O)Cc1cc2c(c([N+](=O)[O-])c1)N(C(=O)CC[C@H](N)C(=O)O)CC2 0 (no)

Further, for COC(=O)CCSCc1ccc(-c2onc(C)c2NC(=O)OC(C)c2ccccc2Cl)cc1 (stereo not drawn) ? 0 (no)

Further, for Cc1nc(NC(=O)N2CCCC2C(N)=O)sc1-c1csc(C(C)(C)C)n1 (stereo not drawn) ? 0 (no)

Further, for CCCCc1ccc(C(=O)Nc2cc(-c3ccc(Cl)cc3)nn2-c2ccc(Cl)cc2)cc1 ? 0 (no)

Further, for CN1CCN(Cc2ccc(-c3cnc4[nH]cc(-c5ccc6[nH]ccc6c5)c4c3)cc2)CC1 ? 1 (yes)

Further, for Cc1c(CN2CCN(C(=O)C(C)O)CC2)sc2c(N3CCOCC3)nc(-c3cnc(N)nc3)nc12 (stereo not drawn) ? 1 (yes)

Further, for CN(C)CCn1cc(S(=O)(=O)c2cccc(F)c2)c2cccnc21 ? 0 (no)

Further, for COCCOc1ccc(N2CCN(CCn3ncc4c3nc(N)n3nc(-c5ccco5)nc43)CC2)cc1 ? 0 (no)

Further, for CC(=O)N1CCN(Cc2ccc([C@H](C)Nc3nccc(N4C(=O)OC[C@@H]4C(C)C)n3)cc2)CC1 ? 0 (no)

Further, for CCOCCn1nc(CC)c2nc(N3CCC(C(=O)O)CC3)nc(Nc3cc(C)ccn3)c21 ? 0 (no)

***
Field: outcome | Entry: COc1cc2c(NC3CCN(CC4CCCCC4)CC3)nc(N3CCCN(C(C)C)CC3)nc2cc1OCCCN1CCCCC1 1 (yes)

Further, for Cc1onc(C(=O)N2CCN(C(c3ccc(Cl)cc3)c3ccc(Cl)cc3)CC2)c1[N+](=O)[O-] ? 1 (yes)

Further, for COc1cc(C)c(C(=O)Oc2cc(C)c(C(=O)Oc3cc(C)c(C(=O)NC(C)C(=O)O)c(O)c3)c(O[C@@H]3O[C@H](CO)[C@@H](O)[C@H](O)[C@H]3OC(C)=O)c2)c(OC)c1 (stereo partly drawn) ? 0 (no)
